target-entity: GTPase KRas (G12D) and Son of Sevenless Homolog 1 (SOS) (Homo sapiens, UniProt P01116, G12D)
Sequence (P01116 whole entry G12D): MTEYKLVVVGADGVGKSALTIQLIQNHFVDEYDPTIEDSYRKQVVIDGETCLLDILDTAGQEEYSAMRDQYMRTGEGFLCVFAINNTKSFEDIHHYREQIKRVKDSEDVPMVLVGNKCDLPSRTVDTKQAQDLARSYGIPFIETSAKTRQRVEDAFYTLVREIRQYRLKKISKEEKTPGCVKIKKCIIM
Sequence (Q07889 whole entry, further chain): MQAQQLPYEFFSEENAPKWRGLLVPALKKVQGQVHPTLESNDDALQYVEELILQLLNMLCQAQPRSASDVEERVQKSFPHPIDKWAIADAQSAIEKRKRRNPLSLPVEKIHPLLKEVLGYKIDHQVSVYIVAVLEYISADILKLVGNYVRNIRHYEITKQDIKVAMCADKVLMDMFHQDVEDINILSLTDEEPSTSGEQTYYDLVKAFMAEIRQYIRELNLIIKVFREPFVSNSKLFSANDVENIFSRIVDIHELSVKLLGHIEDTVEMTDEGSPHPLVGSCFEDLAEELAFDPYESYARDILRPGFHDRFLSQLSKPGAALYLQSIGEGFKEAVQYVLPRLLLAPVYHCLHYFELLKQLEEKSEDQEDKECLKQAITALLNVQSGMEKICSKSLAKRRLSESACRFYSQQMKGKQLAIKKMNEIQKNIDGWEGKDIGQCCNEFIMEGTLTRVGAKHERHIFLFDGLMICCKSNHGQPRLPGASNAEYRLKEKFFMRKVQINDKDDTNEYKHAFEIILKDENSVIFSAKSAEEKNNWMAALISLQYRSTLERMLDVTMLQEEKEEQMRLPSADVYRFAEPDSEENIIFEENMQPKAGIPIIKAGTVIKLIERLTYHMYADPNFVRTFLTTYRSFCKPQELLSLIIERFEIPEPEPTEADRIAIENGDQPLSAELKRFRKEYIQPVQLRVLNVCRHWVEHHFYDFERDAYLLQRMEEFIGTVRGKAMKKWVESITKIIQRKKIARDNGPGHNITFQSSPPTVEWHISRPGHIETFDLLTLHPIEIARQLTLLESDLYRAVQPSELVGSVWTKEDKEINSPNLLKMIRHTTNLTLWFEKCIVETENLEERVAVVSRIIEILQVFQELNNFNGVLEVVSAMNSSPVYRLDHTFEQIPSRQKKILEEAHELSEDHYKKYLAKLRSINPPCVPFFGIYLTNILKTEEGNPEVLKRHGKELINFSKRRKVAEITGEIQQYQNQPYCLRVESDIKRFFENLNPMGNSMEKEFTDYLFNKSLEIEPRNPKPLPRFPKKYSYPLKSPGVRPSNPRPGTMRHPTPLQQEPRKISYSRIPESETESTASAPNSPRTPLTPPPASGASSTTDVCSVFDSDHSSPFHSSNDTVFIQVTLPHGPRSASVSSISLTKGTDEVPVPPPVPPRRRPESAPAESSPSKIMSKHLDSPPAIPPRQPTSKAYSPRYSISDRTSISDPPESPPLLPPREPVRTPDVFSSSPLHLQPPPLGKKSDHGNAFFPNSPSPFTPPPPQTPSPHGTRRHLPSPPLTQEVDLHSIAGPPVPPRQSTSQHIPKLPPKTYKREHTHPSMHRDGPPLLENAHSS
assay: AlphaScreen Assay
Numbered stars: 1 amine (or outer) side, 2 acyl side, 3 side chain; on linkers, the order of the positions; unused ones are H or OH. Bridge positions count the residues as written; N and C are the ends. Square brackets hold non-standard residues; d marks the D form. Peptide text beside a SMILES is read from it. * marks the point of attachment. ξ: configuration not given here. hPhe(3-Cl-4-CF3) = N[C@@H](CCc1ccc(C(F)(F)F)c(Cl)c1)C(=O)O; hPhe(3-F,4-CF3) = N[C@@H](CCc1ccc(C(F)(F)F)c(F)c1)C(=O)O; X96 = O=C([C@H](CCc1ccc(C(F)(F)F)nc1)N[*:1])[*:2]; NMeTyr(3-F) = CN[C@@H](Cc1ccc(O)c(F)c1)C(=O)O; NMeGly(cPent) = CN[C@H](C(=O)O)C1CCCC1; NMeCha = CN[C@@H](CC1CCCCC1)C(=O)O; cisHyp = O=C(O)[C@@H]1C[C@H](O)CN1; NMeChg = CN[C@H](C(=O)O)C1CCCCC1; NMeD = CN[C@@H](CC(=O)O)C(=O)O; NMeL = CN[C@@H](CC(C)C)C(=O)O; Cba = N[C@@H](CC1CCC1)C(=O)O; NMeV = CN[C@H](C(=O)O)C(C)C; Ac7c = NC1(C(=O)O)CCCCCC1; NMeA = CN[C@@H](C)C(=O)O; Piperidide = C1CCN(*)CC1; X57 = FC(F)Oc1ccc(C*)cc1; Ac5c = NC1(C(=O)O)CCCC1; Aze = O=C(O)[C@@H]1CCN1; ξP = O=C(O)C1CCCN1; Sar = CNCC(=O)O
Each record here notes measured pIC50.
# pIC50 = -log10(concentration in molar units)

Example entries and their recorded answers appear below.
{"compound": "CC(C)C[C@H]1C(=O)N[C@@H](CC2CCC2)C(=O)N(C)CC(=O)N(C)CC(=O)N(C)[C@@H](CC2CCCCC2)C(=O)N(C)CC(=O)N[C@@H](CCc2ccc(C(F)(F)F)c(Cl)c2)C(=O)N2CCCC2C(=O)NC2(CCCCCC2)C(=O)N(C)[C@@H](C(C)C)C(=O)N(C)[C@H](C(=O)N2CCCCC2)CC(=O)N1C (some centres undefined) [US20240148821, Compound 451] ([NMeL][Cba][Sar][Sar][NMeCha][Sar][hPhe(3-Cl-4-CF3)][ξP][Ac7c][NMeV][NMeD]-Piperidide; lactam N-11)", "pIC50": 8.00}
{"compound": "CC[C@H](C)[C@@H]1NC(=O)[C@H](CC(C)C)N(C)C(=O)C[C@@H](C(=O)N2CCCCC2)N(C)C(=O)[C@H](CC(C)C)N(C)C(=O)C2(CCCC2)NC(=O)[C@@H]2C[C@H](OCc3ccc(OC(F)F)cc3)CN2C(=O)[C@H](CCc2ccc(C(F)(F)F)c(F)c2)NC(=O)CN(C)C(=O)[C@H](CC2CCCCC2)N(C)C(=O)CN(C)C(=O)CN(C)C1=O [US20240148821, Compound 2135] ([NMeL]I[Sar][Sar][NMeCha][Sar][hPhe(3-F,4-CF3)][cisHyp](X57)[Ac5c][NMeL][NMeD]-Piperidide; lactam N-11)", "pIC50": 7.06}
{"compound": "CC[C@H](C)[C@@H]1NC(=O)[C@H](CC(C)C)N(C)C(=O)C[C@@H](C(=O)N2CCCCC2)N(C)C(=O)[C@H](C2CCCC2)N(C)C(=O)C2(CCCC2)NC(=O)[C@@H]2CCCN2C(=O)[C@H](CCc2ccc(C(F)(F)F)nc2)NC(=O)CN(C)C(=O)[C@H](CC2CCCCC2)N(C)C(=O)[C@@H]2CCN2C(=O)[C@H](C)N(C)C1=O [US20240148821, Compound 2078] ([NMeL]I[NMeA][Aze][NMeCha][Sar][X96]P[Ac5c][NMeGly(cPent)][NMeD]-Piperidide; lactam N-11)", "pIC50": 7.96}

Here is the next item to consider.
Tell me its pIC50 given CC[C@H](C)[C@@H]1NC(=O)[C@H](CC(C)C)N(C)C(=O)C[C@@H](C(=O)N2CCCCC2)N(C)C(=O)[C@H](C2CCCCC2)N(C)C(=O)C2(CCCC2)NC(=O)[C@H](Cc2ccc(O)c(F)c2)N(C)C(=O)[C@H](CCc2ccc(C(F)(F)F)c(Cl)c2)NC(=O)CN(C)C(=O)[C@H](CC2CCCCC2)N(C)C(=O)CN(C)C(=O)CN(C)C1=O [US20240148821, Compound 2170] ([NMeL]I[Sar][Sar][NMeCha][Sar][hPhe(3-Cl-4-CF3)][NMeTyr(3-F)][Ac5c][NMeChg][NMeD]-Piperidide; lactam N-11) as the entry.
7.16
